B1: Pistol ribozyme (parent)
chain: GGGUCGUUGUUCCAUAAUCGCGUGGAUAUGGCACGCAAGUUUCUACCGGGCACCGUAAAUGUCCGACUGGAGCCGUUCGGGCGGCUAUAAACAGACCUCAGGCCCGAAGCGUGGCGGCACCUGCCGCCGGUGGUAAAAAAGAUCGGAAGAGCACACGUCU

Variants of: B1
Experiment: aptazyme ON/OFF ratio, guanine; higher = stronger switching; co-transcriptional cleavage with and without guanine
readout label: aptazyme ON/OFF ratio
Numbers only.

For the 5 variants below, give their aptazyme ON/OFF ratio values.
1. U10C U11G C13U
2. U7A G9C C13G
3. U7G U8C U10G U11G C12G C13U
4. U7C U8G G9C C12G
5. U7G U8C G9U U10C U11A C12G C13A

Resp:
[1.35, 1.06, 1.4, 1.28, 1.39]

The following variants each have a reported value; give each one's aptazyme ON/OFF ratio.
1. U7C U8A G9A U10A U11A C12U
2. U7C U8A U10A C12G C13A

Resp:
1.19
1.32

I need aptazyme ON/OFF ratio for every entry listed below, if you could help.
1. U7A U8G G9C U11A C12G C13G
2. U7A U8A G9A U11A C12A C13U
3. U7G U8G G9C U10C U11G C12A C13A

Resp:
[1.35, 1.07, 1.17]

// each variant listed below needs its aptazyme ON/OFF ratio
1. U7G U8C U11C C12U
2. U7A U8G G9A U10A U11C C12G C13A
3. U8G U11G C12G C13G
4. U7C U8C G9C U11C C12A C13G
5. U7G U8G U11G C12G C13G
6. U7A U8C G9U C12A C13G
7. U7G G9C U10C U11A C12A

Resp:
[1.57, 1.21, 1.08, 1.04, 1.21, 1.19, 1.46]
